Numbers sourced from the supplement of paper PMC9170038.

system: MS2 coat protein; assay: apparent KD of MS2 coat protein; designed switch direction (-1 OFF switch, 1 ON switch): -1; higher = weaker reporter binding; details: input ligand: FMN 200 uM
OUTCOME MEASURE: apparent KD of MS2 coat protein

- SEQUENCE: "UCGCUCCGUGUAGGAUAUCGCCGUUCUAUUCGGCGAGAAGGACAUGAGGAUCACCCAUGUAUGUUAUUAUCACGCGUGGCGCAC [Design 57] (Eterna round: R96, puzzle: Exclusion NG 1)"
  EXPERIMENTAL VALUE: "0.0215 µM"
- SEQUENCE: "ACAUGAGGAUCACCCAUGUCCGGCUGGUCUGUCUCGGCUGUCGAGGAUAUAGCACGGUAUCCGCGCUAGAAGGCGGGAGCCGGG [Aenatbe mod 88] (Eterna round: R96, puzzle: Exclusion NG 3)"
  EXPERIMENTAL VALUE: "0.237 µM"
- SEQUENCE: "AUCGUGCAGCUUUGCUGUACGAGUACAUGAGGAUCACCCAUGUAGGAUAUGGUACGCAAAGCGUGCUAGAAGGAUAUGAGAAAU [Mat - Exclusion NG 3 - Mod of JL - D99] (Eterna round: R96, puzzle: Exclusion NG 3)"
  EXPERIMENTAL VALUE: "0.0307 µM"
